studyTarget: vanilloid receptor 1 (VR1/TRPV1 receptor) (Homo sapiens)
Construct: expressed in transfected cells; host or cells: CHO K1
Sequence (Q8NER1 whole entry): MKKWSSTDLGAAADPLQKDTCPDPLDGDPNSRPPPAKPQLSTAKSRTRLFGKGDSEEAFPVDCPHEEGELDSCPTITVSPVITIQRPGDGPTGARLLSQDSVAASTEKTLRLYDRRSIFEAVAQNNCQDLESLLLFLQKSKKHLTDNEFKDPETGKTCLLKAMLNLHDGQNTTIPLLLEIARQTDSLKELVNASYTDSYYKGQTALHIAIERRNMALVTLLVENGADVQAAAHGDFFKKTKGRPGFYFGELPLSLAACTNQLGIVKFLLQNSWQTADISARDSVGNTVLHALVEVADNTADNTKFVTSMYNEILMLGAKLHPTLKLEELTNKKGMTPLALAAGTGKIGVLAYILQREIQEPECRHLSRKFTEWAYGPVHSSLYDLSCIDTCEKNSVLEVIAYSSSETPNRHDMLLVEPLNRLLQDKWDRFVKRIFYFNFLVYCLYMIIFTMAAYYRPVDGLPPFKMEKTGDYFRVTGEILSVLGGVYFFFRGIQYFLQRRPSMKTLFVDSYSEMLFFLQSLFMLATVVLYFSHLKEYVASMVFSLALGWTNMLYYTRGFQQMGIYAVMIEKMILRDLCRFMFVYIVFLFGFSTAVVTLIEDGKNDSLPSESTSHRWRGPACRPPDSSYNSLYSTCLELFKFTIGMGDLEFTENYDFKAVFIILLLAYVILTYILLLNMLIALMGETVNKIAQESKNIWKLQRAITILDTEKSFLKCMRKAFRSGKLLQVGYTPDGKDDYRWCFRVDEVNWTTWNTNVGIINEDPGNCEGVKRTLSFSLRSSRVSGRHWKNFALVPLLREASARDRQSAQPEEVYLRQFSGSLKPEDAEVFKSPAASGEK
runDescription: Functional testing on the vanilloid receptor 1 (FLIPR Ca2+ influx assay, capsaicin)
Type: cell-based, human being
Set-up: key: effect in words (agonist / no effect): AG=agonist; NE=no effect
condition: Cap=capsaicin
Procedure: […] In the process, the Ca^2+ influx is quantified in the FLIPR assay with the aid of a Ca^2+-sensitive dye (type Fluo-4, Molecular Probes Europe BV, Leiden, the Netherlands) in a fluorescent imaging plate reader (FLIPR, Molecular Devices, Sunnyvale, USA), as described hereinafter. […] The FLIPR protocol consists of 2 substance additions. […] After 5 minutes' incubation, 100 nM of capsaicin are applied and the Ca^2+ influx is also determined. […]
readoutType: (f) (human being) Cap: effect in words (agonist / no effect)

Q: Which (f) (human being) Cap: effect in words (agonist / no effect) is reported for this molecule? `CC1CCN(c2nc(C(F)(F)F)ccc2CNC(=O)Nc2ccc3ncn(C)c3c2)CC1`
A: AG

Q: Please do the same for `CC(=O)Nc1nc2cc(NC(=O)NCc3ccc(C(F)(F)F)nc3N3CCC(C)CC3)ccc2s1` as well.
A: AG

Q: Please do the same for `CC1CCN(c2nc(C(F)(F)F)ccc2CNC(=O)Nc2nccc3ccccc23)CC1` as well.
A: NE

Q: Please do the same for `CC1CCN(c2nc(C(F)(F)F)ccc2CNC(=O)Nc2ccnc3ccccc23)CC1` as well.
A: AG
